Task for the reader: assign each of the following molecules its reported PBMC TOX PXC50.
# Tested on: human peripheral blood mononuclear cells (PBMC)
# ASSAY PROTOCOL: PBMC cytotoxicity assay (CellTiter-Glo)
# Type: cell-based
# ASSAY CONDITIONS: 2 days, pCC50

Sample records with PBMC TOX PXC50:
Req: GET /values?readout=PBMC TOX PXC50&item= CC(C)CN(c1ccc(C(C)(C)CC(=O)O)cc1Nc1nc(Cl)ns1)C1CCOCC1 [Example 5]
Resp: <5

Req: Can you look up the measured PBMC TOX PXC50 of COCC(=O)N1CCC(N(CC(C)C)c2ccc([C@H](C)CC(=O)O)cc2Nc2nc(C(F)(F)F)ns2)CC1 [Example 72] for me?
Resp: <5

Req: Query (molecule): CC(C)CN(c1ccc([C@H](C)CC(=O)O)cc1Nc1cnc(C(N)=O)cn1)C1CCOCC1 [example 264] ; field requested: PBMC TOX PXC50
Resp: <5

Req: Quick one: PBMC TOX PXC50 of CO[C@H]1CC[C@H](N(CC(C)C)c2ccc(-c3ccccc3C(=O)O)cc2Nc2nc(C(F)(F)F)ns2)CC1 [Example 111] ?
Resp: <5

// each molecule listed below needs its PBMC TOX PXC50
1. CC(C)CN(c1ccc([C@H](C)CC(=O)O)cc1Nc1nc(Cl)ns1)C1CC2(CCC2)C1 [Example 98]
2. CC(C)CN(CC(C)C)c1ccc([C@H](C)CC(=O)O)cc1Nc1nc(C(F)(F)F)cn1COCC[Si](C)(C)C [example 220]
3. CC(C)CN(c1ccc(C(C)CC(=O)O)cc1NCc1c[nH]cn1)C1CCCCC1 (stereo not shown) [example 159]

Resp:
1. <5
2. <5
3. <5

These entries and their values trace back to patent US10899754B2.
